Assay: Spectral (photophysical) properties of representative derivatives in DCM at room temperature
Format: physicochemical
Assay setup: DCM, RM, 10−5M; quinine sulfate and rhodamine 6G as standard
Response field label: string, one of true (ϕf (quantum yield) strictly below 0.4) or false.

Query string: Is ϕf (quantum yield) strictly under 0.4 for the entry COc1ccc(-c2oc3cccc4[n+]3c2-c2ccccc2-4)cc1.F[B-](F)(F)F [3j] ?
Result string: false

Query string: Please do the same for F[B-](F)(F)F.c1ccc2c(c1)-c1cccc3oc(-c4ccc5ccccc5c4)c-2[n+]13 [3c] as well.
Result string: false

Query string: Again, but for F[B-](F)(F)F.Fc1ccc(-c2oc3cccc4[n+]3c2-c2ccccc2-4)cc1 [3l]
Result string: true

Further cases:
Query string: Would you kindly verify if ϕf (quantum yield) of CN(C)c1ccc(-c2oc3cccc4[n+]3c2-c2ccccc2-4)cc1.F[B-](F)(F)F [3n] is strictly less than 0.4?
Result string: false

Query string: One more compound: F[B-](F)(F)F.c1ccc(-c2oc3cccc4[n+]3c2-c2ccccc2-4)cc1 [3a]
Result string: true

Query string: Then F[B-](F)(F)F.c1ccc2c(c1)-c1cccc3oc(-c4cc5ccccc5c5ccccc45)c-2[n+]13 [3d] ?
Result string: false

Query string: Repeat for the following compound: Clc1ccc(-c2oc3cccc4[n+]3c2-c2ccccc2-4)cc1.F[B-](F)(F)F [3m]
Result string: true

Query string: Now the same for COc1cccc(-c2oc3cccc4[n+]3c2-c2ccccc2-4)c1.F[B-](F)(F)F [3q]
Result string: true

---

Assay: Spectral (photophysical) properties of representative derivatives in DCM at room temperature
Type: physicochemical
Assay setup: DCM, RM, 10−5M
Readout label: λex (excited wavelength) (nm)
# unit: nm | format: bare number

# example entries with known answers
Query string: What value of λex (excited wavelength) has been recorded for this entry: F[B-](F)(F)F.c1ccc2c(c1)-c1cccc3oc(-c4ccc5ccccc5c4)c-2[n+]13 [3c]
Result string: 364

Query string: Follow-up item: F[B-](F)(F)F.c1ccc(-c2oc3cccc4[n+]3c2-c2ccccc2-4)cc1 [3a]
Result string: 338

Query string: Similarly, COc1cccc(-c2oc3cccc4[n+]3c2-c2ccccc2-4)c1.F[B-](F)(F)F [3q] ?
Result string: 332

Query string: Next record, please: Clc1ccc(-c2oc3cccc4[n+]3c2-c2ccccc2-4)cc1.F[B-](F)(F)F [3m]
Result string: 339

Query string: Can you handle F[B-](F)(F)F.c1ccc2c(c1)-c1cccc3oc(-c4cc5ccccc5c5ccccc45)c-2[n+]13 [3d] next?
Result string: 365

Query string: Next compound up: COc1ccc(-c2oc3cccc4[n+]3c2-c2ccccc2-4)cc1.F[B-](F)(F)F [3j]
Result string: 338

Query string: Next up: F[B-](F)(F)F.Fc1ccc(-c2oc3cccc4[n+]3c2-c2ccccc2-4)cc1 [3l]
Result string: 343

---
Query string: Would you mind telling me what λex (excited wavelength) value was observed for CN(C)c1ccc(-c2oc3cccc4[n+]3c2-c2ccccc2-4)cc1.F[B-](F)(F)F [3n] ?
Result string: 511

---

Readout label: melting point

Query string: Given Clc1ccc(-c2oc3cccc4[n+]3c2-c2ccccc2-4)cc1.F[B-](F)(F)F , state its recorded melting point.
Result string: 274 to 275 °C

Query string: Further, for F[B-](F)(F)F.Fc1ccc(-c2oc3cccc4[n+]3c2-c2ccccc2-4)cc1 ?
Result string: 254 to 255 °C

Then this molecule:
Query string: May I ask what melting point has been recorded for Cc1ccc(/C=c2\c3ccccc3c3cccc(=O)n23)cc1Cl ?
Result string: 194 to 195 °C
